Test system: femoral artery
method.description: Contraction of isolated femoral artery (Magnus vessel, cumulative concentration/response curves)
Format: cell-based, rabbits
condition.info: Oryctolagus cuniculus; female rabbit femoral artery, contraction; read-out: pD₂ Femoral Artery(B)
metric.name: pEC50
In plain terms, pEC50 is the concentration in mol/L turned into minus its base-10 logarithm.

pEC50 value, target or system femoral artery, for CNCC(O)c1cccc(NS(C)(=O)=O)c1 (centres unmarked) [Amidephrine, reference compound] : 5.71

pEC50 value, target or system femoral artery, for CNC[C@H](O)c1cccc(O)c1 [Phenylephrine] : 6.32

====

Tested on: smooth muscle of urethra
method.description: Contraction of isolated smooth muscle of urethra (Magnus vessel, cumulative concentration/response curves)
Assay type: cell-based, rabbits
condition.info: Oryctolagus cuniculus, read-out: pD₂ Urethra(A)
metric.name: EC50

EC50 value, target or system smooth muscle of urethra, for CS(=O)(=O)Nc1ccc(F)c([C@@H](O)CN)c1.Cl [(49B), hydrochloride] : 4.37 µM

====

Test system: mice (ddY-strain, male)
method.description: Acute toxicity, oral, mice
Assay type: in vivo
condition.info: 3000 mg/kg, observed two weeks
Provide the reported Mice Dead/ Total of each item.

For record CS(=O)(=O)Nc1ccc(F)c([C@@H](O)CN)c1.O=C(O)C(O)C(O)C(=O)O [(49K)] the listed Mice Dead/ Total is 0 / 4

For record CS(=O)(=O)Nc1ccc(F)c([C@@H](O)CN)c1.Cl [(49B)] the listed Mice Dead/ Total is 0 / 4

For record CNCC(O)c1cccc(NS(C)(=O)=O)c1 (stereo not shown) [Amidephrine, reference compound] the listed Mice Dead/ Total is 3 / 4

For record CS(=O)(=O)Nc1cccc(C(O)CN)c1.Cl (racemic) [(24A), reference compound] the listed Mice Dead/ Total is 3 / 4

====

Tested on: femoral artery
method.description: Contraction of isolated femoral artery (Magnus vessel, cumulative concentration/response curves)
Assay type: cell-based, rabbits
condition.info: Oryctolagus cuniculus; female rabbit femoral artery, contraction; read-out: ED₅₀ Femoral Artery(B)
Provide the reported pEC50 of each item.
In plain terms, pEC50 is the concentration in mol/L turned into minus its base-10 logarithm.

pEC50 value, target or system femoral artery, for CNCC(O)c1cccc(NS(C)(=O)=O)c1 (centres unmarked) [Amidephrine, reference compound] : 5.71

pEC50 value, target or system femoral artery, for CNC[C@H](O)c1cccc(O)c1 : 6.32

====

Tested on: rats (SD strain, male)
method.description: Acute toxicity, oral, rats
Assay type: in vivo
condition.info: 100 mg/kg, observed two weeks
Where a name gives a salt, the structure may show the parent alone.
metric.name: Rats Dead/ Total

For record CS(=O)(=O)Nc1cc(F)cc(C(O)CN)c1.Cl (racemic) [(73A)] the listed Rats Dead/ Total is 1 / 6

For record CS(=O)(=O)Nc1ccc(F)c([C@@H](O)CN)c1.O=C(O)C(O)C(O)C(=O)O [(49K)] the listed Rats Dead/ Total is 0 / 6

For record CS(=O)(=O)Nc1cccc(C(O)CN)c1.Cl (racemic) [(24A), reference compound] the listed Rats Dead/ Total is 1 / 6

For record C[C@H](N)[C@H](O)c1cc(NS(C)(=O)=O)ccc1F (racemic) [(59A), hydrochloride] the listed Rats Dead/ Total is 0 / 6

====

System: rats (SD strain, male)
method.description: Acute toxicity, oral, rats
Type: in vivo
condition.info: 300 mg/kg, observed two weeks
Structures can show the parent of a compound that is named as a salt.
Provide the reported Rats Dead/ Total of each item.

For record CNCC(O)c1cc(NS(C)(=O)=O)ccc1Cl (racemic) [(67A), hydrochloride, reference compound] the listed Rats Dead/ Total is 0 / 6

For record CNC[C@H](O)c1ccc(F)c(NS(C)(=O)=O)c1 [(61B)] the listed Rats Dead/ Total is 6 / 6

For record CNCC(O)c1ccc(F)c(NS(C)(=O)=O)c1.Cl (racemic) [(61A), reference compound] the listed Rats Dead/ Total is 0 / 6

For record CS(=O)(=O)Nc1ccc(F)c([C@@H](O)CN)c1.O=C(O)C(O)C(O)C(=O)O [(49K)] the listed Rats Dead/ Total is 0 / 6

For record CNCC(O)c1cc(NS(C)(=O)=O)c(F)cc1F.Cl (racemic) [(71A)] the listed Rats Dead/ Total is 0 / 6

For record CS(=O)(=O)Nc1cc(C(O)CN)c(F)cc1F.Cl (racemic) [(63A)] the listed Rats Dead/ Total is 0 / 6

For record C[C@H](N)[C@H](O)c1ccc(F)c(NS(C)(=O)=O)c1 (racemic) [(70A), hydrochloride] the listed Rats Dead/ Total is 2 / 6

For record CS(=O)(=O)Nc1cc(F)cc(C(O)CN)c1.Cl (racemic) [(73A)] the listed Rats Dead/ Total is 5 / 6

For record CS(=O)(=O)Nc1cccc(C(O)CN)c1.Cl (racemic) [(24A), reference compound] the listed Rats Dead/ Total is 1 / 6

src = patent EP0538469A1
